- assayName: inhibition of 3D7 malaria parasite growth – strain 3D7 (AID 2306);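 also: 0% = DMSO wells and 100% = chloroquine plus artemisinin control wells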
- cond: P. falciparum 3D7 erythrocytic growth, LDH absorbance, 72 h; at 2 µM; active compounds read high
readout: growth inhibition (%)
Provide the reading as a plain figure in %.

Before answering, review these 3 worked examples.
compound: CC(C)[C@@H]1c2ccc(O)cc2C[C@H]2C(=O)N(C3CCCCC3)C(=O)N21
measured: 95

compound: Fc1cc(Cl)ccc1Nc1ccnc2cc(-c3ccc(CN4CCNCC4)o3)ccc12
measured: 100

compound: CN(CCCNCc1ccc2ccccc2c1)CCCNCc1ccc2ccccc2c1
measured: 100

Query `C=C1C[C@@H](n2cnc3c(NC(=O)c4ccccc4)ncnc32)[C@@H](F)[C@@H]1OC(c1ccccc1)(c1ccccc1)c1ccccc1` yields growth inhibition of 98

Query CCOc1cccc(C2c3c(oc4ccccc4c3=O)C(=O)N2CCN(CC)CC)c1 (centres undefined) yields growth inhibition of 100

Query O=C(Nc1cccc(C(F)(F)F)c1)c1cccc(S(=O)(=O)NCC2CCCN2CC2CCCCC2)c1 (centres undefined) yields growth inhibition of 97

Query `Fc1ccc(-c2cc3ncnc(N4CCN(CCN5CCCC5)CC4)c3s2)cc1` yields growth inhibition of 98

Query `COCCN1CCC(N(Cc2ccc(-c3ccc(OC(F)(F)F)cc3)cc2)C(=O)Cn2c(CCc3cccc(F)c3F)cc(=O)c3ccccc32)CC1` yields growth inhibition of 96

Query `Cc1c(Cc2ccc(F)cc2)c(Cl)nc2nc(N)nc(N)c12` yields growth inhibition of 92

====

- assayName: antimalarial activity against Dd2 strain (AID 2302);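 also: 0% = DMSO untreated growth and 100% = chloroquine plus artemisinin killed control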
- cond: P. falciparum Dd2 in RBCs, LDH growth readout, 72 h; at 2 µM; active compounds read high
Class T: growth inhibition at least 60%. Class F: growth inhibition below 60%.

molecule: COc1ccc(CCc2ccc(-c3c(C)[nH]c(C)c(Cl)c3=O)cc2)cc1
classAssignment: T
//
molecule: Clc1ncnc2scc(-c3ccc(Br)cc3)c12
classAssignment: T

-- ask State whether the measured growth inhibition reaches 60%, counting equality as reaching it, for `O=C(Nc1ccsc1)Nc1cccc(-c2ccc(-c3nc4ccc(C(F)(F)F)cc4[nH]3)cc2)c1`
-- reply F

-- ask State whether the measured growth inhibition reaches 60%, counting equality as reaching it, for `Cc1[nH]c(C)c(-c2ccc(-c3ccc(OC(F)(F)F)cc3)cc2)c(=O)c1Cl`
-- reply T

-- ask State whether the measured growth inhibition reaches 60%, counting equality as reaching it, for CC(CN1CCN(CC(c2ccc(F)cc2)N2CCN(C)CC2)CC1)C(=O)c1ccc(O)cc1 (configuration not stated)
-- reply F

-- ask State whether the measured growth inhibition reaches 60%, counting equality as reaching it, for `Cn1c(=N)cc(-c2ccc(Br)cc2)c2c(=O)[nH]c(N)nc21`
-- reply F

-- ask State whether the measured growth inhibition reaches 60%, counting equality as reaching it, for `O=C(Nc1cc(=O)[nH]c2nc(-c3ccccc3)nn12)C1CCCCC1`
-- reply T

====

- targetOfAssay: L-lactate dehydrogenase (Plasmodium falciparum (isolate CDC / Honduras)) (UniProt Q27743)
- Sequence (Q27743 whole entry, looked up): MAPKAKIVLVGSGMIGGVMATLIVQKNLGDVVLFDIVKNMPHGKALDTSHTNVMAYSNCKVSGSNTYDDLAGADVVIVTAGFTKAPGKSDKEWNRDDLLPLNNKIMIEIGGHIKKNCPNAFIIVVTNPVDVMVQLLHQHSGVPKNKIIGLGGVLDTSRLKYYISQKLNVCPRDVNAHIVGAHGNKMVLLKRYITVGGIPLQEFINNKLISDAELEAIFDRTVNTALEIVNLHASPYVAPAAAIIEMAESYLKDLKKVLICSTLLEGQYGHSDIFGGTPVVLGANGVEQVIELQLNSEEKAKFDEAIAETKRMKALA
- assayName: PfLDH activity inhibition – cell lysate, 3D7 strain, counter-screen for P. falciparum growth inhibition project (AID 2304);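 also: 0% = vehicle and 100% = reference inhibitor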
- cond: P. falciparum 3D7 crude extract, LDH APAD/NBT absorbance; at 2 µM; active compounds read high
readout: inhibition (%)
Provide the reading as a plain figure in %.

compound: Cn1c(=N)n(CC(=O)N2CCc3ccc(Cl)cc3C2Cc2ccc(Cl)c(Cl)c2)c2ccccc21 (stereo not drawn)
inhibition / %: -1
//
compound: CC(CN1CCN(C)CC1)C(=O)Nc1ccc(-c2ccc(-c3nc4ccccc4[nH]3)cc2)cc1 (stereo not drawn)
inhibition / %: 4

As a next step, examine the compound that follows.
Query `O=C(Nc1ccc(Cl)c(Cl)c1)Nc1ccc2nccc(N3CCNCC3)c2c1` yields inhibition of -6
